assay procedure: Blood concentration and oral BA in monkey after single intravenous or oral dose (Test Example 4)
Assay type: in vivo, female Macaca irus (monkey)
condition info: female, Macaca irus (cynomolgus), blood, single dose 1.6 mg/kg oral, one monkey (different individual), read-out: AUC0-∞ Oral
quantity: AUC(0-inf) (ng·h/mL)
Express it in ng·h/mL; write the number only.

[in] Data request, read-out AUC(0-inf), for CC(=O)O[C@@]12CO[C@@H]1CC[C@@]1(C)[C@@H]3O[C@H](CN4CCOCC4)O[C@@H]3C3=C(C)[C@@H](OC(=O)[C@H](O)[C@@H](NC(=O)OC(C)(C)C)c4ccccn4)C[C@@](O)([C@@H](OC(=O)c4ccccc4)[C@@H]12)C3(C)C [Compound (B)]
[out] 28.1
